Target: T1, interleukin 18 binding protein (IL-18BP) (UniProt O95998 31-194)
T1 sequence (looked up): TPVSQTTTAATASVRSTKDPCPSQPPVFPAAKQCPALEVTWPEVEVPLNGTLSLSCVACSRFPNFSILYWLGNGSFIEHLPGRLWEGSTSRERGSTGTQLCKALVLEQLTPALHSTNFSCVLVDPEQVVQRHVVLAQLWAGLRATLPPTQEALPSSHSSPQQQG
Assay: cell-based or functional assay

{"columns": ["binder", "Ratio (-BP/+BP), DF-10000"],
 "data": [
  ["IL-18 variant T34E, S36P, D40A, N41G, K53T, S55R (ligand) YFGKLESKLSVIRNLNDQVLFIDQGNRPLFEDMEDPDMRAGAPRTIFIISMYTDRQPRGMAVTISVKSEKISTLSSENKIISFKEMNPPDNIKDTKSDIIFFQRSVPGHDNKMQFESSSYEGYFLASEKERDLFKLILKKEDELGDRSIMFTVQNED", 0.98],
  ["IL-18 variant K53Y, S55Y, Q56H (ligand) YFGKLESKLSVIRNLNDQVLFIDQGNRPLFEDMTDSDMRDNAPRTIFIISMYYDYHPRGMAVTISVKSEKISTLSSENKIISFKEMNPPDNIKDTKSDIIFFQRSVPGHDNKMQFESSSYEGYFLASEKERDLFKLILKKEDELGDRSIMFTVQNED", 0.73]
]}
